Assay: physchem
Conditions: octanol/water, pH 7.4
// condition not met strictly below 0.7 in logD; condition met otherwise

compound	assigned_class
CC1(C)N=C(N)N=C(N)N1c1cccc(Br)c1	condition not met
Nc1ccc2cc3ccc(N)cc3nc2c1 [PROFLAVINE]	condition met
CCCCCCCCCCCCc1cccc(N2C(N)=NC(N)=NC2(C)C)c1	condition met
COc1ccc(OC)c(Cc2cnc3nc(N)nc(N)c3c2C)c1 [PIRITREXIM]	condition met
CCCC[N+](CCCC)(CCCC)CCCC.[Br-] [TETRABUTYLAMMONIUM BROMIDE]	condition not met
O=c1[nH]cc(F)c(=O)[nH]1 [FLUOROURACIL]	condition not met
COc1ccc(C[C@H](N)C(=O)N[C@H]2[C@@H](O)[C@H](n3cnc4c(N(C)C)ncnc43)O[C@@H]2CO)cc1 [PUROMYCIN]	condition met
COc1cc(NCc2ccc3nc(N)nc(N)c3c2C)cc(OC)c1OC [TRIMETREXATE]	condition met
CC(=O)[C@H]1CC[C@H]2[C@@H]3CCC4CC(=O)CC[C@]4(C)[C@H]3CC[C@]12C (stereo partly drawn)	condition met
C[n+]1c2cc(N)ccc2cc2ccc(N)cc21.[Cl-] [EUFLAVINE]	condition met
CN[C@H]1CCc2cc(OC)c(OC)c(OC)c2-c2ccc(OC)c(=O)cc21 [DEMECOLCINE]	condition met
COc1cc2c(c(OC)c1OC)-c1ccc(OC)c(=O)cc1[C@@H](NC(C)=O)CC2 [COLCHICINE]	condition met
C=C1[C@@H](C)[C@H]2[C@H](Cc3ccccc3)NC(=O)[C@]23OC(=O)/C=C/[C@H](O)CCC[C@@H](C)C/C=C/[C@H]3[C@@H]1O [CYTOCHALASIN B]	condition met
NC(=O)NO [HYDROXYUREA]	condition not met
CC[C@H]1CN2CCc3cc(OC)c(OC)cc3[C@@H]2C[C@@H]1C[C@H]1NCCc2cc(OC)c(OC)cc21 [EMETINE]	condition met
CC1(C)N=C(N)N=C(N)N1c1ccccc1	condition not met
O=P1(N(CCCl)CCCl)NCCCO1 (stereo not drawn) [CYCLOPHOSPHAMIDE ANHYDROUS]	condition not met
S=P(N1CC1)(N1CC1)N1CC1 [THIOTEPA]	condition not met
CC(C)[C@@H]1NC(=O)[C@H](C)OC(=O)[C@@H](C(C)C)NC(=O)[C@@H](C(C)C)OC(=O)[C@H](C(C)C)NC(=O)[C@H](C)OC(=O)[C@@H](C(C)C)NC(=O)[C@@H](C(C)C)OC(=O)[C@H](C(C)C)NC(=O)[C@H](C)OC(=O)[C@@H](C(C)C)NC(=O)[C@@H](C(C)C)OC1=O [VALINOMYCIN]	condition met
N[C@@H](Cc1ccc(N(CCCl)CCCl)cc1)C(=O)O	condition not met
CN(Cc1cnc2nc(N)nc(N)c2n1)c1ccc(C(=O)N[C@@H](CCC(=O)O)C(=O)O)cc1 [METHOTREXATE]	condition not met
Nc1n[nH]c(N)n1 [GUANAZOLE]	condition not met
Cc1nc(N)nc(N)c1-c1ccc(Cl)c(Cl)c1 [METOPRINE]	condition met
CC[C@]1(O)C[C@@H]2CN(CCc3c([nH]c4ccccc34)[C@@](C(=O)OC)(c3cc4c(cc3OC)N(C)[C@H]3[C@@](O)(C(N)=O)[C@H](O)[C@]5(CC)C=CCN6CC[C@]43[C@@H]65)C2)C1 [VINDESINE]	condition not met
Nc1ncn([C@@H]2O[C@H](CO)[C@@H](O)[C@H]2O)c(=O)n1 [AZACITIDINE]	condition not met
Sc1ncnc2nc[nH]c12 [MERCAPTOPURINE ANHYDROUS]	condition not met
CCc1nc(N)nc(N)c1-c1ccc(Cl)c(Cl)c1 [ETOPRINE]	condition met
COc1cc([C@@H]2c3cc4c(cc3[C@@H](O[C@@H]3O[C@@H]5CO[C@@H](c6cccs6)O[C@H]5[C@H](O)[C@H]3O)[C@H]3COC(=O)[C@H]23)OCO4)cc(OC)c1O [TENIPOSIDE]	condition met
CC[C@]1(O)C[C@H]2CN(CCc3c([nH]c4ccccc34)[C@@](C(=O)OC)(c3cc4c(cc3OC)N(C=O)[C@H]3[C@@](O)(C(=O)OC)[C@H](OC(C)=O)[C@]5(CC)C=CCN6CC[C@]43[C@@H]65)C2)C1 [VINCRISTINE]	condition met
C[C@]12CC[C@H]3[C@@H](CCC4=CC(=O)CC[C@@]43C)[C@@H]1CC[C@@H]2C(=O)CO [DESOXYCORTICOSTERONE]	condition met
CCN(CC)CCOC(=O)c1ccc(N)cc1 [PROCAINE]	condition not met
O=c1[nH]c(=O)n([C@H]2C[C@H](O)[C@@H](CO)O2)cc1Br [BROXURIDINE]	condition not met
